Overview of reported inhibition across a group of compounds:
Target desc: 5-hydroxytryptamine receptor 2A (Rattus norvegicus)
Sequence (P14842 whole entry): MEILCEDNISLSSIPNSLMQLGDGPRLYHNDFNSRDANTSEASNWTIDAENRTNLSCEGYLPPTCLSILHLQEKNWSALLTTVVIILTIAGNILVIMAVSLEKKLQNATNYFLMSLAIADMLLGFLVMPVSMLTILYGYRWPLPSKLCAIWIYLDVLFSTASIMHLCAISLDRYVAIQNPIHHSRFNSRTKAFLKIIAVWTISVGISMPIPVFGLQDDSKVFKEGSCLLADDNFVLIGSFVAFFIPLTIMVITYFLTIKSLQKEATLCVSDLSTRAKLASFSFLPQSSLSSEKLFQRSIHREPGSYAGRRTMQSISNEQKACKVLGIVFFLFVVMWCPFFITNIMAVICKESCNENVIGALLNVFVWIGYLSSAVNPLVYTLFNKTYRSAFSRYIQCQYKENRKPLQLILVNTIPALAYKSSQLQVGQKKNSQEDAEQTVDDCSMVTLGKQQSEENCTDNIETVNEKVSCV
Test method notes: Displacement of [3H]ketanserin from Sprague-Dawley rat brain cortex serotonin 5-HT2A receptor at 0.00001 uM after 15 mins by liquid scintillation counting
Measured parameter: inhibition

1) N#C/N=C(\NCCCN1CCN(c2cccc(Cl)c2)CC1)c1ccccn1 : 68.8%
2) N#C/N=C(\NCCCN1CCN(c2ncccn2)CC1)c1ccccn1 : 44.3%
3) N#C/N=C(\NCCCN1CCN(c2cccc(C(F)(F)F)c2)CC1)c1ccccn1 : 62.8%
4) COc1ccccc1N1CCN(CCCN/C(=N\C#N)c2ccccn2)CC1 : 65.9%

----------
Target desc: 5-hydroxytryptamine receptor 2A (Rattus norvegicus)
Test method notes: Displacement of [3H]ketanserin from Sprague-Dawley rat brain cortex serotonin 5-HT2A receptor after 15 mins by liquid scintillation counting
Test parameters: read-out: Ki
Overview of reported log10(Ki) across a group of molecules:
Measured parameter: log10(Ki) (log10 of the value in nM)

1. N#C/N=C(\NCCCN1CCN(C(=O)c2ccco2)CC1)c1ccccn1 : 1.33
2. N#C/N=C(\NCCCN1CCN(c2ccccc2C#N)CC1)c1ccccn1 : 2.96
3. N#C/N=C(\NCCCN1CCN(c2ccccc2Cl)CC1)c1ccccn1 : 1.43
4. COc1ccccc1N1CCN(CCCN/C(=N\C#N)c2ccccn2)CC1 : -2.80
5. N#C/N=C(\NCCCN1CCN(Cc2ccc3c(c2)OCO3)CC1)c1ccccn1 : 1.71
6. N#C/N=C(\NCCCN1CCN(c2cccc(C(F)(F)F)c2)CC1)c1ccccn1 : -3.11

----------
Overview of reported Ki across a group of molecules:
Target desc: Adrenergic receptor alpha-1 (Rattus norvegicus, UniProt P15823+P23944+P43140)
Test method notes: Displacement of [3H]prazosin from rat brain cortex adrenergic alpha1 receptor after 30 mins by liquid scintillation counting
Measured parameter: Ki (nM)

1) N#C/N=C(\NCCCN1CCN(c2cccc(C(F)(F)F)c2)CC1)c1ccccn1 : 770
2) COc1ccccc1N1CCN(CCCN/C(=N\C#N)c2ccccn2)CC1 : 105
3) N#C/N=C(\NCCCN1CCN(c2cccc(Cl)c2)CC1)c1ccccn1 : 174
4) Cc1cccc(N2CCN(CCCN/C(=N\C#N)c3ccccn3)CC2)c1C : 729
5) CCOc1ccccc1N1CCN(CCCN/C(=N\C#N)c2ccccn2)CC1 : 152

----------
Overview of reported pKi across a group of compounds:
Target desc: 5-hydroxytryptamine receptor 1A (Rattus norvegicus)
Sequence (P19327 whole entry): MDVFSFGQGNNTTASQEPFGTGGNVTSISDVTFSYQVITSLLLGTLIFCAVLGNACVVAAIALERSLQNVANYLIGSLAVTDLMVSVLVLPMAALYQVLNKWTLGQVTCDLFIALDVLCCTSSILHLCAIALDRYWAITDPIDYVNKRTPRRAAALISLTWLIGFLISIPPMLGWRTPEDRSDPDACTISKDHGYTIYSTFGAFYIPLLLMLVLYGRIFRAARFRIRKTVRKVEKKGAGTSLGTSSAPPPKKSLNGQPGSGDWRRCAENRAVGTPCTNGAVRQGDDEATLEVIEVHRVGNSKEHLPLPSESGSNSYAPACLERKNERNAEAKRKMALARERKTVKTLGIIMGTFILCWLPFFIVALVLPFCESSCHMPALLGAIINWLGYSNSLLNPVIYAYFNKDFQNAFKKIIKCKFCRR
Test method notes: Displacement of [3H]-8-OH-DPAT from Sprague-Dawley rat brain cortex serotonin 5-HT1A receptor after 30 mins by liquid scintillation counting
Test parameters: read-out: Ki
pKi: −log10 of the molar value.
Measured parameter: pKi

1. N#C/N=C(\NCCCN1CCN(Cc2ccc3c(c2)OCO3)CC1)c1ccccn1 : < 5.00
2. N#C/N=C(\NCCCN1CCN(c2ccccc2C#N)CC1)c1ccccn1 : < 5.00
3. N#C/N=C(\NCCCN1CCN(C(=O)c2ccco2)CC1)c1ccccn1 : < 5.00

----------
Target desc: Adrenergic receptor alpha-2 (Rattus norvegicus, UniProt P22086+P19328+P22909)
Sequence (P22086 whole entry): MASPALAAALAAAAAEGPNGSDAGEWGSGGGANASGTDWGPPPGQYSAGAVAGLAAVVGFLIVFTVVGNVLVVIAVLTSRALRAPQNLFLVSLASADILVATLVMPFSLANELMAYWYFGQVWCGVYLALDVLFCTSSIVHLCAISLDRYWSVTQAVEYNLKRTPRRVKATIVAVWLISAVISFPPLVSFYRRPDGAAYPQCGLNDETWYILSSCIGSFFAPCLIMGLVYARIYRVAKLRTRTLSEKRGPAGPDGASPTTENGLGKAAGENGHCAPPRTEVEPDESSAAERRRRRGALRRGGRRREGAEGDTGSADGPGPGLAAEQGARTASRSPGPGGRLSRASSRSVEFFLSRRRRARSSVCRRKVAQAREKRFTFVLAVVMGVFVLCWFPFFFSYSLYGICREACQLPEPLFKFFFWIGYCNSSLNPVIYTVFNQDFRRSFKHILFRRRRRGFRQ
Sequence (P19328 whole entry): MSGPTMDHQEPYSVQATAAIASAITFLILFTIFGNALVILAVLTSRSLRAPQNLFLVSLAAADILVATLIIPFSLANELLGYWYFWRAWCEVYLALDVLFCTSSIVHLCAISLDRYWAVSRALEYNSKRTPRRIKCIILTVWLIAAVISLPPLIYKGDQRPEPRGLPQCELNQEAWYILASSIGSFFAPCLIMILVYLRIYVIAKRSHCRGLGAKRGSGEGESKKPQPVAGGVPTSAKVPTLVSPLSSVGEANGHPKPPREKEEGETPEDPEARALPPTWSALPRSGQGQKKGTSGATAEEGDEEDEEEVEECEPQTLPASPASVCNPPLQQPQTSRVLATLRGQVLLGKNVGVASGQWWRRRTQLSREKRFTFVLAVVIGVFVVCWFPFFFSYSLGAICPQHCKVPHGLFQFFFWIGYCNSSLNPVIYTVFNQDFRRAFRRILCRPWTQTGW
Sequence (P22909 whole entry): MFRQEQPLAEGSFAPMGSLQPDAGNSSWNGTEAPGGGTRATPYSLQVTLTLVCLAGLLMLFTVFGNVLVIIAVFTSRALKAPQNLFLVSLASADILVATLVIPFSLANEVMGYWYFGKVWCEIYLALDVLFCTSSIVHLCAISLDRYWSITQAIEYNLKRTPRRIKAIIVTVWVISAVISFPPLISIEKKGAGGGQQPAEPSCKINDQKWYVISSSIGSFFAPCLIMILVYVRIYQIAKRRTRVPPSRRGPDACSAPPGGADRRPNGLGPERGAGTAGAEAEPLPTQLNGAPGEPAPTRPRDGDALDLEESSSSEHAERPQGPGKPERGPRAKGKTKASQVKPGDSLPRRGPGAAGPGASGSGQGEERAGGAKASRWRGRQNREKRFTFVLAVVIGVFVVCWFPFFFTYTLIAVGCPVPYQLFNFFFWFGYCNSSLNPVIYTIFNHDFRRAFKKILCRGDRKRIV
Test method notes: Displacement of [3H]yohimbine from rat brain cortex adrenergic alpha2 receptor after 30 mins by liquid scintillation counting
Overview of reported Ki across a group of molecules:
Measured parameter: Ki

1. N#C/N=C(\NCCCN1CCN(c2ccccn2)CC1)c1ccccn1 : > 10 µM
2. N#C/N=C(\NCCCN1CCN(C(=O)c2ccco2)CC1)c1ccccn1 : > 10 µM
3. N#C/N=C(\NCCCN1CCN(c2cccc(C(F)(F)F)c2)CC1)c1ccccn1 : > 10 µM
